Target: T-type calcium channel (Homo sapiens)
Sequence (O95180 whole entry): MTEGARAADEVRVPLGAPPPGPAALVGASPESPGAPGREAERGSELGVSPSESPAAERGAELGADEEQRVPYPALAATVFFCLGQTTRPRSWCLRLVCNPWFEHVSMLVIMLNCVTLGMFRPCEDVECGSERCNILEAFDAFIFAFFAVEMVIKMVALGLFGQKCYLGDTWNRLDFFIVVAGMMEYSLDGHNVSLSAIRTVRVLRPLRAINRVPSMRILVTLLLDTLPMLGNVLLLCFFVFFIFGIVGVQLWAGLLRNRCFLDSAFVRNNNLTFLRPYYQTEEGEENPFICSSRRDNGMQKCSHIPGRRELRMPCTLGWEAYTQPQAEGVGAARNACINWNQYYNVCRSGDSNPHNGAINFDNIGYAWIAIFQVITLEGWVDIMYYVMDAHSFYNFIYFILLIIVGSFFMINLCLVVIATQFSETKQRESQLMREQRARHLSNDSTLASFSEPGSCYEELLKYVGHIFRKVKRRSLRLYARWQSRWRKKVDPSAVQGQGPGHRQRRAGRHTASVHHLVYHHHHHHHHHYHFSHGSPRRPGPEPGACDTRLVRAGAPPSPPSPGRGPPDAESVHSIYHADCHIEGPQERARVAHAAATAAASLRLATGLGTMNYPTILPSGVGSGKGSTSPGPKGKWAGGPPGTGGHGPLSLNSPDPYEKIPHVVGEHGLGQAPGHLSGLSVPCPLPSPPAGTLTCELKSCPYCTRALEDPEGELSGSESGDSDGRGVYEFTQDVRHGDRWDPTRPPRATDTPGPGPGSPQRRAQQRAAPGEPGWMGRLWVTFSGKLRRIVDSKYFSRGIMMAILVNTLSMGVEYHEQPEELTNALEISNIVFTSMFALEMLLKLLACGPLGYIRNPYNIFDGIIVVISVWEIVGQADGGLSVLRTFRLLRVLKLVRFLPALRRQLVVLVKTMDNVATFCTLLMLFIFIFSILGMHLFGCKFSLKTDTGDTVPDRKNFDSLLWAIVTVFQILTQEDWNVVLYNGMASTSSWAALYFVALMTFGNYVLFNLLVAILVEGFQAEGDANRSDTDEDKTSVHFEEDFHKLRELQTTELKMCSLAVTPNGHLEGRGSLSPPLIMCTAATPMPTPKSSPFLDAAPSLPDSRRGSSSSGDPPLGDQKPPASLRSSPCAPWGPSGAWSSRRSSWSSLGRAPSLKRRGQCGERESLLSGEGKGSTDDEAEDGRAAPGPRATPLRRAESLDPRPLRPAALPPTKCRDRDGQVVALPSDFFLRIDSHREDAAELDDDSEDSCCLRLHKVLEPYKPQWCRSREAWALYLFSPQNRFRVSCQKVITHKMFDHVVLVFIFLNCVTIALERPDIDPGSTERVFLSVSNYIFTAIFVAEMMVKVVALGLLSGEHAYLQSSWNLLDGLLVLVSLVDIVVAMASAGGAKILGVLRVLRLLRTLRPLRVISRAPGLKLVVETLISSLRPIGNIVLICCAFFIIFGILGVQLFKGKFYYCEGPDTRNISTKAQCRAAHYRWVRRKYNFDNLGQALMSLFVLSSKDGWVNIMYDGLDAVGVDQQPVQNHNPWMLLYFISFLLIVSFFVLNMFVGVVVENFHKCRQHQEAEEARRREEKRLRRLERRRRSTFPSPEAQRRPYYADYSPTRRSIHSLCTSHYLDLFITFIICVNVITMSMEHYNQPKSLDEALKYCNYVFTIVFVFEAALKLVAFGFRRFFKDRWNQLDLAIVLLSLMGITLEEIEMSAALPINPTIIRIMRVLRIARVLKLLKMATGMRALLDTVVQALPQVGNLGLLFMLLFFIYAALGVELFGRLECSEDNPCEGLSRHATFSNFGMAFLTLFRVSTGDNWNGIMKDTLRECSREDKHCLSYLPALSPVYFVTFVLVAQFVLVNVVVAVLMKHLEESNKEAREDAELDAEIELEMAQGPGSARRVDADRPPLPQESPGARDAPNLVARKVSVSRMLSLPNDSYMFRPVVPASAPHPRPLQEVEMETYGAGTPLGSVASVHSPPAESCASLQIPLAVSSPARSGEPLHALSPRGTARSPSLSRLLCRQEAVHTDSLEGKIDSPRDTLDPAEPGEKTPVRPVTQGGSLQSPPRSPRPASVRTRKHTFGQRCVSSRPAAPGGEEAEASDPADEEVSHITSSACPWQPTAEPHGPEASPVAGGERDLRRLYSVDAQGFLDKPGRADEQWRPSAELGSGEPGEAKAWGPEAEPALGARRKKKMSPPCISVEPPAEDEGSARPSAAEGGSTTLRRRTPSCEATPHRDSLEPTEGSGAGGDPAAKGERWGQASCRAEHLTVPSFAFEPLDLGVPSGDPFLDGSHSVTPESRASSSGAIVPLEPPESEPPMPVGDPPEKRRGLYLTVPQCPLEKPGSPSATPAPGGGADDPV
Assay: T-type channel blocking, FLIPR data (Table 6)
Format: cell-based
Settings: CAv3.2, ratio closed/inactivated IC50
Assign CAv3.2 IC50 Ratio closed/inact. to each entry below.
Answers are plain numbers.

Give CAv3.2 IC50 Ratio closed/inact. for each of the items listed below.
1. CC(C)([C@H]1C[C@@H](NS(=O)(=O)c2ccc(C(F)(F)F)nc2)C1)S(=O)(=O)c1cc(F)cc(C(F)(F)F)c1
2. CC(C)([C@H]1C[C@@H](NC(=O)c2cnc(C(F)(F)F)nc2)C1)S(=O)(=O)c1cccc(C(F)(F)F)c1
3. CC(C)([C@H]1C[C@@H](CNC(=O)c2ccc(Cl)c(OC(F)(F)F)c2)C1)S(=O)(=O)c1cccc(C(F)(F)F)c1
4. O=C(NC[C@H]1C[C@H](S(=O)(=O)c2cc(F)cc(C(F)(F)F)c2)C1)c1ccc(Cl)cn1
5. CC(C)([C@H]1C[C@H](NC(=O)c2ccc(C(F)(F)F)cc2S(C)(=O)=O)C1)S(=O)(=O)c1cc(F)cc(C(F)(F)F)c1
6. CC(C)(C[C@H]1C[C@H](NC(=O)c2ccc(C(F)(F)F)nc2)C1)S(=O)(=O)c1cccc(C(F)(F)F)c1

Result block:
1. 1.9
2. 1
3. 2.6
4. 2
5. 1
6. 1.2

---

Assign CAv2.2 IC50 Ratio closed/inact. to each entry below.
Biological target: Human Cav 2.2 channels (Homo sapiens, UniProt Q00975)
Test: Fluorescent assay for CaV2.2 channels using potassium depolarization (VIPR/FLIPR)
Type: cell-based
Details: FLIPR data; ratio closed/inactivated IC50
One number for each entry.

Please review the entries below; each comes with its answer.
CNC1(CC(=O)N[C@H]2C[C@@H](C(C)(C)S(=O)(=O)c3cccc(OC(F)(F)F)c3)C2)CCCCC1; 5.2
CC(C)([C@H]1C[C@H](NC(=O)c2ccnc(C(F)(F)F)n2)C1)S(=O)(=O)c1cc(F)cc(C(F)(F)F)c1; 17.3
CC(C)([C@H]1C[C@H](NS(=O)(=O)c2ccc(C(F)(F)F)nc2)C1)S(=O)(=O)c1cccc(C(F)(F)F)c1; 9.3
CC(C)(C[C@H]1C[C@@H](NC(=O)c2ccc(Cl)cn2)C1)S(=O)(=O)c1cccc(C(F)(F)F)c1; 10
N[C@@H]1CCCC[C@@H]1C(=O)NC[C@H]1C[C@H](S(=O)(=O)c2cccc(OC(F)(F)F)c2)C1 (single isomer, unassigned); 2.8

Give CAv2.2 IC50 Ratio closed/inact. for each of the items listed below.
1. CC(C)([C@H]1C[C@H](NC(=O)c2ccc(Cl)c(F)c2)C1)S(=O)(=O)c1cccc(OC(F)(F)F)c1
2. CC(C)([C@H]1C[C@@H](NC(=O)c2ccc(Cl)cn2)C1)S(=O)(=O)c1cccc(C(F)(F)F)c1
3. CC(C)([C@H]1C[C@H](NC(=O)CC2(N)CCCCC2)C1)S(=O)(=O)c1cccc(OC(F)(F)F)c1
4. CC(C)([C@H]1C[C@@H](NC(=O)c2ncc(C(F)(F)F)cn2)C1)S(=O)(=O)c1cccc(C(F)(F)F)c1
5. CC(C)(C1CC(CNC(=O)c2ccnc(C(F)(F)F)n2)C1)S(=O)(=O)c1cccc(C(F)(F)F)c1 (centres unmarked)
6. CC(C)([C@H]1C[C@@H](NC(=O)c2ncc(C(F)(F)F)cc2S(C)(=O)=O)C1)S(=O)(=O)c1cc(F)cc(C(F)(F)F)c1
7. CC(C)([C@H]1C[C@@H](CNC(=O)c2ccc(F)c(Cl)c2)C1)S(=O)(=O)c1cccc(C(F)(F)F)c1

Result block:
[10.8, 7.5, 6.3, 8.9, 5.5, 5.9, 10.4]

Give CAv2.2 IC50 Ratio closed/inact. for each of the items listed below.
1. O=C(NC[C@H]1C[C@H](S(=O)(=O)c2cccc(C(F)(F)F)c2)C1)c1ccc(Cl)cn1
2. CC(C)(C1CC(CNC(=O)c2ccc(Cl)c(OC(F)(F)F)c2)C1)S(=O)(=O)c1cccc(C(F)(F)F)c1 (centres unmarked)

Result block:
1. 7.5
2. 12.2

Reference source: patent US20120245137A1
